- measurement-target: erythrocytes infected with P. falciparum field isolate 10975
- assay-overview: flow cytometry, staining of IEs
Overview of reported % parasite recognition across a group of binders:
value-type: % parasite recognition (%)

* MGC33 (antibody) VH: EVHLVESGGGLVQPGGSLRLSCEASGFTFSSYWMTWVRQAPGKGLEWVANINQDGSERYYVDSVKGRFTISRDTVKNSLYLQMNNLRAEDTAVYYCARQRFCSDGSLFHGEDLPRPTISAETGTVISLGSHVTFVCRGPLGVQTFRLERESRSRYSETEDVSQVGPSESEARFRIDSVSEGNAGLYRCIYYKPPKWSEQSDYLELRVKGEDVTWALLTYCGGDRDESDYYMDVWGKGTTVTVSS VL: QTVVTQEPSLTVSPGGTVTLTCASSTGSVTSGSFPNWFQQTPGQAPRSLIYSTTKKHSWTPARFSGSLLGGKAALTVSDTQPEDEAEYYCLLYCGGGQPWVFGGGTKLTVQ | 11.5
* MGD41 (antibody) VH: EVQLVESGPGLVKPSGTLSVTCTISGGSINTDKWWTWVRQPPGKGLEWVGEVLHTGSTNYNPSLRGRVTISVDKSKNQFSLRLSSVTAADTAVYYCATISTLRPQRDIEDLPRPSLSAEPGTVVPLGSHVTFVCRGPVGVQTFRLERESRSTYNDTEDVSQPSPFESEARFRIDSVSEGNAGPYRCIYYKSPKWSDQSDYVELLVKGEDVTWAPPQSQLAPRACPQGELRTSTDIFSMNVWGKGTTVTVSS VL: AIRMTQSPSSLSAFTGDRVTISCRASQDIGNYLDWYHQKPGRAPKLLIHGASTLLTGVPSRFSGSGSGTDFTLNITCLQSGDFGIYYCLQYYSSPPAFGPGTRLEIK | 7.3
* MGD55 (antibody) VH: QVQLQESGPGLVKPSGTLSLTCTVSGGSISAYKWWSWVRQAPGKGLEWIGQVYHNGNTNYNPSLKGRVAMSVDKSKNRFSLRLASVTAADTAVYYCATISPLRPQSDTDDLPRPSISAEPGTVIPLGSHVTFVCRGPIGVQTFRLERESRSLYSDTEDVSQVSPFASEARFRIDSVSEGNAGPYRCIYYKDRKWSDQSDYLELLVKGEDVTWALPQSQLAPRACPQEELNISTDIFSMNVWGKGTTVTVSS VL: AIRMTQSPASLSASIGDRVTITCRTSQDVGNYLDWYQQKPGKAPKLLIHGASTLQTGVPSRFSGSGAGTDFTLNITCLQSGDFAMYYCQQYYSSPPGFGQGTRLEIK | 15.6
* MGD30 (antibody) VH: QVQLQESGPGLVKPSETLSLSCAVTGGSITSSKWWTWVRQGPDKGLEWIGKIYHNGTTNYNPSLKSRVAMSVDKSRNQFSLRLTSVTAADTALYYCATASPFKSHHRTTEKLPRPSISAEPGTVIPLGSRVTFVCRGPVGVQTFRLERETSFTYNDTEDVSQVSPSESEARFRIDSVSEGYAGPYRCVYYKAPKWSEQSDYLDLLVKGEDVTWALTQPQLDPRACPQGDLRMSTDIYCMDVWGKGTTVTVSS VL: AIRLTQSPSSLSASIGDRVTITCRASQDISTFLAWYQQESGKAPRLLIFAASTLQTGVPSRFSGSGSGTDFTLTISGLQSEDFATYYCQQYYCFPPDFGQGTRLDIK | 6.5
